molecules and their reported efflux ratio
Target: human MDR1 (P-glycoprotein; P-gp) (Homo sapiens (Human), UniProt P08183)
Sequence (P08183 whole entry): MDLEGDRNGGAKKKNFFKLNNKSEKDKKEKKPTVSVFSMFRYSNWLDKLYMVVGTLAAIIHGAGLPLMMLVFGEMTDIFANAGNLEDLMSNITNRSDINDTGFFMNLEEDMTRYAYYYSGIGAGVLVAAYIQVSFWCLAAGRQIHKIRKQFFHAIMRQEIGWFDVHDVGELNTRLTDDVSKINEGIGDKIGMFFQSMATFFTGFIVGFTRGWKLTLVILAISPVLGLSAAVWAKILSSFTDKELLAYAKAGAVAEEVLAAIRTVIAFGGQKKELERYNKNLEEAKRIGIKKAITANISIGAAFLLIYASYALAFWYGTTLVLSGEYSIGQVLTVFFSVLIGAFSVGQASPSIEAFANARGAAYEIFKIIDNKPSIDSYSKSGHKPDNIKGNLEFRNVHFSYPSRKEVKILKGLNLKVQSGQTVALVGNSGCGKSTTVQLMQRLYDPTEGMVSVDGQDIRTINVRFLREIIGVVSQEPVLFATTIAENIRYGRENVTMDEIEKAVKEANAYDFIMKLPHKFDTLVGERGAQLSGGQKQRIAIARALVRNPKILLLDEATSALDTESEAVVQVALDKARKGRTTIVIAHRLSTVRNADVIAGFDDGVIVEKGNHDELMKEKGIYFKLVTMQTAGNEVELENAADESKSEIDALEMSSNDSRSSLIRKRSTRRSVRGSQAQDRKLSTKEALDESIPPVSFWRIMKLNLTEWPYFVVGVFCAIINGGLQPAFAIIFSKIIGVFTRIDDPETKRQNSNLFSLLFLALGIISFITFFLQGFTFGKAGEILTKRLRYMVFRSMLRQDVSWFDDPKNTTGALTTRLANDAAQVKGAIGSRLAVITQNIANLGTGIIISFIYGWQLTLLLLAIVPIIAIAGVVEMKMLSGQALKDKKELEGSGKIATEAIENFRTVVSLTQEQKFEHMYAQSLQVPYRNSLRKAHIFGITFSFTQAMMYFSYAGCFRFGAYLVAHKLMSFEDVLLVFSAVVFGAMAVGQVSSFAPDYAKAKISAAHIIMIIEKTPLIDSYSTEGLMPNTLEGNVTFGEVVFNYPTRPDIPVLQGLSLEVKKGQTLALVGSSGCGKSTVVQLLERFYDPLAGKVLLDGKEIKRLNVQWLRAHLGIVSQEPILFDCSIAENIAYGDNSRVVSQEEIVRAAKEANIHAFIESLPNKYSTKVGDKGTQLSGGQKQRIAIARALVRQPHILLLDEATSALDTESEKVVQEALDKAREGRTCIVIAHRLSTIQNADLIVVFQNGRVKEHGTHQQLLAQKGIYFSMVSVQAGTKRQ
Assay: bi-directional MDCK-MDR1 permeability assay
Format: in vitro ADME
Settings: human, MDCK-MDR1; efflux ratio B→A/A→B; read-out: MDCK-MDR1 ER
Please give the numeric answer without any surrounding text.

INSERT INTO measurements (molecule, numeric_readout) VALUES
  ('C[C@H]1Nc2cc(F)cc3c(=O)[nH]nc(c23)[C@@H]1c1ccccc1Cl [Compound 0172A]', 0.658),
  ('O=c1[nH]nc2c3c(cc(F)cc13)NCC2c1ccc(F)cc1F (centres unmarked)', 0.995),
  ('O=c1[nH]nc2c3c(cc(F)cc13)NC[C@@H]2c1ccc(F)cc1F [Compound 0114B]', 0.55);

State the recorded efflux ratio for this entry: C[C@H]1Nc2cc(F)cc3c(=O)[nH]nc(c23)[C@@H]1c1ccc(Cl)c(F)c1 [Compound 0195A]
0.699

State the recorded efflux ratio for this entry: C[C@H]1Nc2cc(F)cc3c(=O)[nH]nc(c23)[C@@H]1c1ccc(F)cc1F [Compound 0174A]
0.532
